target: human P2X7 receptor (Homo sapiens, UniProt Q99572, R270H/Y155H); test: Evaluation of human P2X7 receptor inhibitory activity (Yo-Pro uptake, BzATP stimulation, FLIPR TETRA); format: cell-based; settings: antagonistic activity for the human P2X7 receptor; read-out: IC50
Listed next: entries and their corresponding IC50.

[
  {
    "Smiles Record": "Cc1cc(Nc2nc(=O)c(F)cn2Cc2cc(F)c(F)c(F)c2)c(Cl)cc1F",
    "IC50": "< 10 nM"
  },
  {
    "Smiles Record": "COc1cn(Cc2cc(F)c(F)c(F)c2)c(Nc2ccc3c(c2C)COC3)nc1=O",
    "IC50": "10 to 100 nM"
  },
  {
    "Smiles Record": "Cc1cc(C)c(Nc2nc(=O)c(F)cn2Cc2cc(F)c(F)c(F)c2)cc1C",
    "IC50": "< 10 nM"
  },
  {
    "Smiles Record": "C=C(C)c1ccc(C)c(Nc2nc(=O)c(OC)cn2Cc2ccc(F)c(F)c2)c1",
    "IC50": "10 to 100 nM"
  }
]

* * *

Biological target: human P2X7 receptor (Homo sapiens, UniProt Q99572, R270H/Y155H)
Experiment: Evaluation of human P2X7 receptor inhibitory activity (Yo-Pro uptake, BzATP stimulation, FLIPR TETRA)
Format: cell-based
Settings: antagonistic activity for the human P2X7 receptor; read-out: IC50
Procedure: Stably expressing cell line (1321N1 cell transfected with the human P2X7 receptor gene (GenBank accession number NM_002562.5 including T606C and G952A SNP)) was used. […] Measurement of fluorescence intensity by FLIPR TETRA was started. […] Changing values of fluorescence intensity by the compound of the present invention were calculated by difference between maximum and minimum fluorescence intensity for 20 minutes. Inhibition ratios (%) were calculated from the following equation: […]
Reported IC50 values are given for each entry in this list.

[
  {
    "Molecule": "COc1cn(Cc2cc(F)cc(Cl)c2)c(Nc2cc(C)cc3[nH]ccc23)nc1=O [Compound I-0649]",
    "Assay System": "human P2X7 receptor (Homo sapiens, UniProt Q99572, R270H/Y155H)",
    "IC50": "10 to 100 nM"
  },
  {
    "Molecule": "CCOc1cc(C)c(Nc2nc(=O)c(F)cn2Cc2ccc(F)c(Cl)c2)cc1F [Compound I-1060]",
    "Assay System": "human P2X7 receptor (Homo sapiens, UniProt Q99572, R270H/Y155H)",
    "IC50": "10 to 100 nM"
  },
  {
    "Molecule": "CCc1cc2c(cc1Nc1nc(=O)c(OC)cn1Cc1ccccc1)OCCO2 [Compound I-0796]",
    "Assay System": "human P2X7 receptor (Homo sapiens, UniProt Q99572, R270H/Y155H)",
    "IC50": "10 to 100 nM"
  },
  {
    "Molecule": "Cc1nc2ccc(Nc3nc(=O)c(F)cn3Cc3cc(F)cc(F)c3)c(C)c2s1 [Compound I-1198]",
    "Assay System": "human P2X7 receptor (Homo sapiens, UniProt Q99572, R270H/Y155H)",
    "IC50": "< 10 nM"
  }
]

* * *

Target: human P2X7 receptor (Homo sapiens, UniProt Q99572, R270H/Y155H)
Assay: Evaluation of human P2X7 receptor inhibitory activity (Yo-Pro uptake, BzATP stimulation, FLIPR TETRA)
Assay type: cell-based
Settings: antagonistic activity for the human P2X7 receptor; read-out: IC50
Method: Stably expressing cell line (1321N1 cell transfected with the human P2X7 receptor gene (GenBank accession number NM_002562.5 including T606C and G952A SNP)) was used. […] Measurement of fluorescence intensity by FLIPR TETRA was started. […] Changing values of fluorescence intensity by the compound of the present invention were calculated by difference between maximum and minimum fluorescence intensity for 20 minutes. Inhibition ratios (%) were calculated from the following equation: […]
pIC50: −log10 of the molar value.

[
  {
    "Smiles Record": "COc1ccc(Nc2nc(=O)cnn2Cc2ccccc2)c(C)c1",
    "pIC50": "7.00 to 8.00"
  },
  {
    "Smiles Record": "CON=c1nc(Nc2cc3sc(C)nc3cc2C)n(Cc2cc(F)c(F)c(F)c2)cc1F",
    "pIC50": "6.30 to 7.00"
  },
  {
    "Smiles Record": "Cc1ccc(C)c(Nc2nc(=N)c(F)cn2Cc2cc(F)c(F)c(F)c2)c1",
    "pIC50": "7.00 to 8.00"
  },
  {
    "Smiles Record": "COc1ccc(C)c(Nc2nc(=O)c(C(=O)O)nn2Cc2cc(F)c(F)c(F)c2)c1",
    "pIC50": "7.00 to 8.00"
  },
  {
    "Smiles Record": "COc1cn(Cc2cc(F)c(F)c(F)c2)c(Nc2cc3cc[nH]c3cc2C)nc1=O",
    "pIC50": "> 8.00"
  },
  {
    "Smiles Record": "COc1ccc(Cl)c(Nc2nc(=O)c(OC)cn2Cc2cc(F)c(F)c(F)c2)c1",
    "pIC50": "> 8.00"
  },
  {
    "Smiles Record": "COc1cn(Cc2ccc(F)c(F)c2)c(Nc2cc(N3CCCC3=O)ccc2C)nc1=O",
    "pIC50": "7.00 to 8.00"
  },
  {
    "Smiles Record": "COc1cn(Cc2cc(F)cc(F)c2)c(Nc2cc(-c3ccc(C)o3)ccc2C)nc1=O",
    "pIC50": "7.00 to 8.00"
  },
  {
    "Smiles Record": "CCOC(=O)c1cn(Cc2cc(F)c(F)c(F)c2)c(Nc2ccc(OC)cc2C)nc1=O",
    "pIC50": "7.00 to 8.00"
  },
  {
    "Smiles Record": "COc1cn(Cc2cc(F)cc(Cl)c2)c(Nc2cc(N3CCOCC3)ccc2C)nc1=O",
    "pIC50": "7.00 to 8.00"
  },
  {
    "Smiles Record": "Cc1ccc(-c2nnco2)cc1Nc1nc(=O)c(Cl)cn1Cc1cc(F)c(F)c(F)c1",
    "pIC50": "> 8.00"
  },
  {
    "Smiles Record": "Cc1cc2cc(Nc3nc(=O)c(F)cn3Cc3cc(F)c(F)c(F)c3)c(C)cc2[nH]1",
    "pIC50": "> 8.00"
  },
  {
    "Smiles Record": "COc1cn(Cc2ccccc2)c(Nc2cc(N3CCCC3)ccc2C)nc1=O",
    "pIC50": "7.00 to 8.00"
  },
  {
    "Smiles Record": "Cc1cc(Nc2nc(=O)c(F)cn2Cc2cc(F)cc(F)c2)c2cc[nH]c2c1",
    "pIC50": "> 8.00"
  },
  {
    "Smiles Record": "COc1cn(Cc2ccc(F)c(Cl)c2)c(Nc2ccc3c(c2C)COC3)nc1=O",
    "pIC50": "> 8.00"
  },
  {
    "Smiles Record": "COc1cn(Cc2ccccc2)c(Nc2ccc(OC(F)(F)F)cc2C)nc1=O",
    "pIC50": "6.30 to 7.00"
  },
  {
    "Smiles Record": "COc1cc(Nc2nc(=O)c(OC)cn2Cc2ccc(F)c(F)c2)c(C)cc1F",
    "pIC50": "> 8.00"
  }
]
